Every entry's value here was drawn from PubChem BioAssay (NCATS).

- method-summary: MultiTox-Fluor Cytotoxicity Assay - LYMP1-002 - Live Cells (AID 955);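 further: cells exposed to compound for 16 hours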
- stated-conditions: LYMP1-002 lymphoblastoid live-cell protease fluorescence viability; series mostly up to 46.1 µM
Inconclusive results are not listed. The source made the active and inactive calls. The call rests on the fitted dose curve; in most records, active means well fitted cell-killing curve with a large enough effect; inconclusive means small, poorly fitted or top-dose-only effect, or effect the other way; inactive means flat fitted curve, though single readings scatter.
metric-name: outcome

{"columns": ["compound", "result"],
 "data": [
  ["CCCCOC(=O)c1ccccc1N", "inactive"],
  ["CN(C)N=O", "inactive"],
  ["CCSC(=O)N1CCCCCC1", "inactive"],
  ["O=C(O)CCl", "inactive"],
  ["C=CC#N", "inactive"],
  ["BrCC(Br)(Br)Br", "inactive"],
  ["Cc1ccc(N)c(N)c1", "inactive"],
  ["Oc1cccc(Cl)c1", "inactive"],
  ["O=[N+]([O-])c1cccc2c([N+](=O)[O-])cccc12", "inactive"],
  ["c1ccc(N=NNc2ccccc2)cc1", "inactive"],
  ["CC12CC1(C)C(=O)N(c1cc(Cl)cc(Cl)c1)C2=O (stereo unspecified)", "inactive"],
  ["COc1ccc(C=O)cc1", "inactive"],
  ["CN(C)c1ccc(N=Nc2ccccc2)cc1", "inactive"],
  ["CN(C)C(=O)Nc1cccc(C(F)(F)F)c1", "inactive"],
  ["Cc1ccc2c(c1N)C(=O)c1ccccc1C2=O", "inactive"],
  ["Nc1cc(Cl)cc(Cl)c1", "inactive"]
]}
